Data origin, for the record: PubChem BioAssay AID248

# Tested on: L1210 leukemia ip in BDF1 mice, survival T/C
# ASSAY COMMENT: NCI In Vivo Anticancer Drug Screen. Data for tumor model L1210 Leukemia (intraperitoneal) in B6D2F1 (BDF1) mice
# CONDITION CONTEXT: endpoint: mean survival time; dose: 200.0 mg/kg/injection; schedule: Q04DX003 (ip); vehicle: other; higher = longer survival
# Method: The antitumor activity of compounds was measured in mice bearing transplantable tumors. Survival or tumor size were measured and the results are expressed as the measurement made in the treated group (T) divided by the measurement made in the vehicle treated control group (C). The tumor model used in this assay is L1210 Leukemia (intraperitoneal) in B6D2F1 (BDF1) mice
Toxic doses and inconclusive results are not listed.
REPORTED ENDPOINT: T/C

// worked examples, T/C included
[
  {
    "COMPOUND": "CS(=O)(=O)N(CC(=O)O)Cc1ccc(Cl)c(Cl)c1",
    "T/C": "97 % of control"
  },
  {
    "COMPOUND": "COc1cc(OCc2ccccc2)c(CC(=O)O)c([N+](=O)[O-])c1",
    "T/C": "94 % of control"
  },
  {
    "COMPOUND": "CCCCC(C)(C)COC(=O)Nc1ccccc1",
    "T/C": "104 % of control"
  },
  {
    "COMPOUND": "Cc1cccc(CN(CC(=O)O)S(C)(=O)=O)c1",
    "T/C": "98 % of control"
  }
]

Continue with the compound presented below.
Query block: Please indicate T/C recorded for COC1C(COS(=O)(=O)c2ccc(C)cc2)OC2OC(C)(C)OC21 (stereo not given)
Result block: 97 % of control

---

# System: L1210 leukemia ip in BDF1 mice, survival T/C
# ASSAY COMMENT: NCI In Vivo Anticancer Drug Screen. Data for tumor model L1210 Leukemia (intraperitoneal) in B6D2F1 (BDF1) mice
# CONDITION CONTEXT: endpoint: mean survival time; dose: 200.0 mg/kg/injection; schedule: Q04DX003 (ip); vehicle: carboxymethylcellulose (CMC); higher = longer survival
Toxic doses and inconclusive results are not listed.
REPORTED ENDPOINT: T/C

// worked examples, T/C included
[
  {
    "CHEMICAL STRUCTURE": "Nc1nc(N)c(N=Nc2ccccc2)c(=O)[nH]1",
    "T/C": "94 % of control"
  },
  {
    "CHEMICAL STRUCTURE": "O=c1ccc2c(ccc3ncccc32)o1",
    "T/C": "93 % of control"
  },
  {
    "CHEMICAL STRUCTURE": "Cc1nc(Br)c(Br)n1C",
    "T/C": "104 % of control"
  },
  {
    "CHEMICAL STRUCTURE": "CCCCCC#CCCCCl",
    "T/C": "94 % of control"
  }
]

Continue with the molecule presented below.
Query block: Please indicate T/C recorded for CCCCCCCC(=O)N(CC(C)C)CC(C)C
Result block: 97 % of control

---

Parameter T/C: see the listing below.
# System: L1210 leukemia ip in BDF1 mice, survival T/C
# ASSAY COMMENT: NCI In Vivo Anticancer Drug Screen. Data for tumor model L1210 Leukemia (intraperitoneal) in B6D2F1 (BDF1) mice
# CONDITION CONTEXT: endpoint: mean survival time; dose: 100.0 mg/kg/injection; schedule: Q01DX009 (ip); vehicle: saline with Tween-80; higher = longer survival
Inconclusive results and toxic doses are left out.

// worked examples, T/C included
[
  {
    "COMPOUND": "O=C(O)CNC(=O)C(Br)Cc1ccccc1 (configuration not stated)",
    "T/C": "96 % of control"
  },
  {
    "COMPOUND": "CCCCOCN1C(=O)N(COCCCC)C(=O)C(CC)(c2ccccc2)C1=O",
    "T/C": "97 % of control"
  },
  {
    "COMPOUND": "F[Si]1(c2cccc(Br)c2)c2ccccc2-c2ccccc21",
    "T/C": "103 % of control"
  },
  {
    "COMPOUND": "O=c1[nH]c(=O)n(CCc2cccs2)cc1F",
    "T/C": "98 % of control"
  }
]

Query block: Please indicate T/C recorded for CCCc1cc(CCC)nc(NNc2nc(CCC)cc(CCC)n2)n1
Result block: 104 % of control

---

# Test system: L1210 leukemia ip in BDF1 mice, survival T/C
# ASSAY COMMENT: NCI In Vivo Anticancer Drug Screen. Data for tumor model L1210 Leukemia (intraperitoneal) in B6D2F1 (BDF1) mice
# CONDITION CONTEXT: endpoint: mean survival time; dose: 40.0 mg/kg/injection; schedule: Q01DX001 (ip); vehicle: saline; higher = longer survival
Toxic doses and inconclusive results are not listed.
REPORTED ENDPOINT: T/C

Query block: Please indicate T/C recorded for CC[N+](C)(C)CCC#N
Result block: 101 % of control

Query block: Please indicate T/C recorded for O=S(=O)(O)CS(=O)(=O)O.[Ag]
Result block: 97 % of control

Query block: Please indicate T/C recorded for OCC(Cc1ccccc1)N1CCCCC1 (stereo not drawn)
Result block: 96 % of control

Query block: Please indicate T/C recorded for O=C1OC2CC3CC1C2C3 (stereo not drawn)
Result block: 99 % of control

Query block: Please indicate T/C recorded for CC1=NCC[N-]CC[N-]CCN=C(C)C2CCCC1[N-]2.[Mn+3]
Result block: 102 % of control

Query block: Please indicate T/C recorded for C=C=C[P+](c1ccccc1)(c1ccccc1)c1ccccc1
Result block: 124 % of control

Query block: Please indicate T/C recorded for C#CC(OC(=O)N(C)C)(c1ccccc1)c1ccc(F)cc1 (stereo not drawn)
Result block: 117 % of control

Query block: Please indicate T/C recorded for CCc1nc(C#N)c(N)o1
Result block: 95 % of control

---

# Tested on: L1210 leukemia ip in BDF1 mice, survival T/C
# ASSAY COMMENT: NCI In Vivo Anticancer Drug Screen. Data for tumor model L1210 Leukemia (intraperitoneal) in B6D2F1 (BDF1) mice
# CONDITION CONTEXT: endpoint: mean survival time; dose: 200.0 mg/kg/injection; schedule: Q04DX003 (ip); vehicle: saline with Tween-80; higher = longer survival
Inconclusive results and toxic doses are left out.
Parameter T/C: see the listing below.

Query block: Please indicate T/C recorded for Cc1cc(C)c2cc(C=O)cc-2c(C)c1
Result block: 94 % of control

Query block: Please indicate T/C recorded for CCCNC(=O)CS(=O)(=O)c1ccc(N)cc1
Result block: 95 % of control

Query block: Please indicate T/C recorded for O=C(c1ccc(Cl)cc1Cl)C(CS(=O)(=O)O)CS(=O)(=O)O
Result block: 98 % of control

Query block: Please indicate T/C recorded for CCCCP(=O)(CCCC)CCP(=O)(CCCC)CCCC
Result block: 97 % of control

Query block: Please indicate T/C recorded for COc1cc(OC)c(Oc2cc(OC)c(OC)c(OC)c2)c(OC)c1
Result block: 103 % of control

Query block: Please indicate T/C recorded for CC(=O)Nc1ccc(S(=O)(=O)Nc2ccc([N+](=O)[O-])cc2)cc1
Result block: 109 % of control

---

# Test system: L1210 leukemia ip in BDF1 mice, survival T/C
# ASSAY COMMENT: NCI In Vivo Anticancer Drug Screen. Data for tumor model L1210 Leukemia (intraperitoneal) in B6D2F1 (BDF1) mice
# CONDITION CONTEXT: endpoint: mean survival time; dose: 200.0 mg/kg/injection; schedule: Q04DX003 (ip); vehicle: Klucel (hydroxypropylcellulose) (HPC); higher = longer survival
Toxic doses and inconclusive results are not listed.
REPORTED ENDPOINT: T/C

// worked examples, T/C included
[
  {
    "COMPOUND": "CC(C)CCCC(C)C1CCC2C3CC=C4CC(OC(=O)CCCC5CCCCC5)CCC4(C)C3CCC12C (stereo unspecified)",
    "MEASURED ON": "L1210 leukemia ip in BDF1 mice, survival T/C",
    "T/C": "94 % of control"
  },
  {
    "COMPOUND": "Cc1ccc(NCS(=O)(=O)O)cc1",
    "MEASURED ON": "L1210 leukemia ip in BDF1 mice, survival T/C",
    "T/C": "100 % of control"
  },
  {
    "COMPOUND": "Cc1ccc(C)c(OC(=O)Nc2cccc(C(F)(F)F)c2)c1",
    "MEASURED ON": "L1210 leukemia ip in BDF1 mice, survival T/C",
    "T/C": "97 % of control"
  },
  {
    "COMPOUND": "O=C(Nc1cc(S(=O)(=O)F)ccc1Cl)c1ccc2ccccc2c1O",
    "MEASURED ON": "L1210 leukemia ip in BDF1 mice, survival T/C",
    "T/C": "98 % of control"
  },
  {
    "COMPOUND": "CCCCC(C(C)=O)C(C)C (stereo unspecified)",
    "MEASURED ON": "L1210 leukemia ip in BDF1 mice, survival T/C",
    "T/C": "96 % of control"
  }
]

Query block: Please indicate T/C recorded for O=C(c1ccccc1)N(Nc1ccccc1)c1ccccc1
Result block: 93 % of control
